Data origin: the supplement of paper PMC10307832

system: ABC-1; assay: relative viability (nuclei count vs DMSO), 5 days (fraction); higher = more cells survive; details: first compound 0.05 µM
parameter measured: relative viability

[[record]]
molecule = "COc1cc2nccc(Oc3ccc(NC(=O)Nc4cc(C)on4)c(Cl)c3)c2cc1OC [Tivozanib] + C[C@]1(O)C[C@@H](c2nc(-c3ccc4ccc(-c5ccccc5)nc4c3)c3c(N)nccn32)C1 [Linsitinib] (partner 1 µM)"
parameter_measured = "relative viability"
observed = 0.676

[[record]]
molecule = "Nc1ccn([C@@H]2O[C@H](CO)[C@@H](O)[C@@H]2O)c(=O)n1 [Cytarabine] + CCNC(=O)c1noc(-c2cc(C(C)C)c(O)cc2O)c1-c1ccc(CN2CCOCC2)cc1 [Luminespib] (partner 0.01 µM)"
parameter_measured = "relative viability"
observed = 0.712

[[record]]
molecule = "Nc1ccn([C@@H]2O[C@H](CO)[C@@H](O)[C@@H]2O)c(=O)n1 [Cytarabine] + O=C(c1cc(Cc2n[nH]c(=O)c3ccccc23)ccc1F)N1CCN(C(=O)C2CC2)CC1 [Olaparib] (partner 8 µM)"
parameter_measured = "relative viability"
observed = 0.991

